Please go through the items and note down their growth inhibition.
# ASSAY PROTOCOL: NCI Yeast Anticancer Drug Screen. Data for the bub3 strain (AID 167)
# STUDY CONDITIONS: S. cerevisiae bub3 mutant strain, hits give high values; at 50.0 µM unless noted
About 79,000 compounds went through this panel and 15% of them were active in at least one assay; those are over-represented in the sample as a whole.
Answers are plain numbers, in %.

Give one value of growth inhibition per listed molecule.
1. Nn1c(-c2cccc(Cl)c2)nc2ccccc2c1=O
2. C=CCNC1=C(NC(C)=O)C(=O)c2ccccc2C1=O

1. 17.9
2. 28.6

###

Please go through the items and note down their growth inhibition.
# ASSAY PROTOCOL: NCI Yeast Anticancer Drug Screen. Data for the bub3 strain (AID 167)
# STUDY CONDITIONS: S. cerevisiae bub3 mutant strain, hits give high values; at 50.0 µM unless noted
The panel holds about 79,000 compounds, 15% with a hit somewhere; the sample as a whole holds those more often.
One number for each entry, in %.

Reference set (3 entries):
c1cc(-c2ncc[nH]2)ccn1; 6.1
CCOC(=O)C(CCc1ccccc1[N+](=O)[O-])(CCc1ccccc1[N+](=O)[O-])C(=O)OCC; 10.7
CCN(CC)N=Nc1ccc(C(=O)O)cc1; 5.85

Give one value of growth inhibition per listed compound.
1. COc1c2c(c(OC)c3ccccc13)C(=O)C1=C(CC=CC1)C2=O
2. Cc1cccc(C(=O)OCC2CCCO2)c1 (centres undefined)
3. COC(=O)C(Br)C(CCCN1C(=O)c2ccccc2C1=O)OC (centres undefined)
4. CC(=O)Nc1ccc(NC(=O)NCCCCCCNC(=O)Nc2ccc(NC(C)=O)cc2)cc1
5. OCC[P+](c1ccccc1)(c1ccccc1)c1ccccc1
6. Clc1cccc(Cl)c1C1SCc2nc3cc4ccccc4cc3n21 (centres undefined)
7. CCOC(=O)C(CCc1ccccc1)(NC(C)=O)C(=O)OCC

14.6
8.8
39.9
-1.7
-6.05
14
14.3

Give one value of growth inhibition per listed compound.
1. O=C(CCCN1CCC2(CC1)CC(=O)N(N1CCOCC1)C2=O)c1ccc(F)cc1
2. C/C(=N\NC(=O)c1ccncc1)c1cc(Cl)ccc1Cl
3. CCc1c(C)[nH]c2ccc([N+](=O)[O-])cc12
4. CCCCCCOc1ccccc1CO

1: -3.4; 2: 0.35; 3: 23.2; 4: -8.15

Give one value of growth inhibition per listed compound.
1. COC1=CC(=O)CC(C)C12Oc1c(Cl)c(OC)cc(OC)c1C2=O (centres undefined)
2. COc1ccc2nc3cc(Cl)ccc3c(SCC(=O)Nc3ccccc3-c3ccccc3NC(=O)CSc3c4ccc(Cl)cc4nc4ccc(OC)cc34)c2c1
3. C1COC2SC3=C(SC(=C4SC5=C(SCCS5)S4)S3)SC2O1 (centres undefined)
4. O=C(CO[N+](=O)[O-])OC/C=C/c1ccccc1
5. CSC(=S)N/N=C(\C)c1cccs1
6. Cc1cc2ccccc2n1/C=C/C1=[N+](C)c2ccccc2C1(C)C
7. Cc1ccc(-c2nc3ccc(Cl)cc3[nH]2)cc1
8. COc1ccc(C(=O)N2N=C(C)C(C)(C)C2(C)O)cc1 (centres undefined)

1. 67.1
2. 2.5
3. 8.85
4. 2.55
5. -47.5
6. 8.1
7. 30.1
8. -29.8

Give one value of growth inhibition per listed compound.
1. CC1(C)OC2OC3C(O)C(=O)OC3C2O1 (centres undefined)
2. CC(C)CCOB(OCCC(C)C)OCCC(C)C

[-2.6, -26.6]
